Hey, just so you know, these numbers are from patent US20230233569A1.

Molecular target: KRAS Q61H (Homo sapiens, UniProt P01116+P62937, Q61H)
Sequence (P01116 1-169 isoform P01116-2 Q61H limits assumed): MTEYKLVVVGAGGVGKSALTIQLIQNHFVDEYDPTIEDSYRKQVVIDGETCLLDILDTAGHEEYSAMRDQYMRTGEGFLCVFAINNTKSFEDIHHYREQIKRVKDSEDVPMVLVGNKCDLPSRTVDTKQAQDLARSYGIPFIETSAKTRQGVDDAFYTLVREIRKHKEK
Sequence (P62937 whole entry): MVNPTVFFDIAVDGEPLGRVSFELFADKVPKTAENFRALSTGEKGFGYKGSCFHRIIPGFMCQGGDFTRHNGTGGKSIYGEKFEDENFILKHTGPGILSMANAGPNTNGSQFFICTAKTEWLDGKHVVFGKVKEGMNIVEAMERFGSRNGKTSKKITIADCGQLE
Assay: Disruption of BRAF RBD interaction with Ras (FRET / MOA assay, with Cyclophilin A)
Type: biochemical
Conditions: KRAS Q61H; read-out: KRAS Q61H FRET data IC50
endpoint: IC50

CCn1c(-c2cccnc2[C@H](C)OC)c2c3cc(ccc31)-c1csc(n1)C[C@H](NC(=O)[C@H](C(C)C)N(C)C(=O)N1CC(n3nc(C)cc3C)C1)C(=O)N1CCC[C@H](N1)C(=O)OCC(C)(C)C2 : 100 to 1000 nM
CCn1c(-c2cccnc2[C@H](C)OC)c2c3cc(ccc31)-c1csc(n1)C[C@H](NC(=O)[C@H](C(C)C)N(C)C(=O)N1CC(OC)C1)C(=O)N1CCC[C@H](N1)C(=O)OCC(C)(C)C2 (racemic) : 10 to 100 nM
CCn1c(-c2cccnc2[C@H](C)OC)c2c3cc(ccc31)-c1csc(n1)[C@@H](O)[C@H](NC(=O)[C@H](C(C)C)N(C)C(=O)N1CC(N(C)C)C1)C(=O)N1CCC[C@H](N1)C(=O)OCC(C)(C)C2 (atropisomer, axis not shown) : 100 to 1000 nM

Challenge: Entry CCn1c(-c2cccnc2[C@H](C)OC)c2c3cc(ccc31)-c1csc(n1)C[C@H](NC(=O)[C@H](C(C)C)N(C)C(=O)N1C[C@H](OC)[C@@H](N)C1)C(=O)N1CCC[C@H](N1)C(=O)OCC(C)(C)C2 (atropisomer, axis not shown) : reported IC50 = ?
Response given: 100 to 1000 nM

----------
The reader will find reported IC50 values listed item by item below.
Molecular target: NRAS G12C (Homo sapiens, UniProt P01111+P62937, G12C)
Sequence (P01111 whole entry G12C): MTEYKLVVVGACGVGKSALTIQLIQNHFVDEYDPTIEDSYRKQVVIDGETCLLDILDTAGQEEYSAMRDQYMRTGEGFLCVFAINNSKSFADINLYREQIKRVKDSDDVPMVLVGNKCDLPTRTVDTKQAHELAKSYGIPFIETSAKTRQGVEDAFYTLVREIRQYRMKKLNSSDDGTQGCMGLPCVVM
Sequence (P62937 whole entry): as the sequence (P62937 whole entry) above
Test: Ras-Raf disruption / FRET / MOA assay (BRAF RBD)
Format: biochemical
Settings: NRAS G12C FRET data IC50, NRAS G12C

CCn1c(-c2cccnc2[C@H](C)OC)c2c3cc(ccc31)-c1cc(O)cc(c1)C[C@H](NC(=O)[C@H](C(C)C)N(C)C(=O)CN(C)C(=O)[C@H]1CN1Cc1ccccc1CO)C(=O)N1CCC[C@H](N1)C(=O)OCC(C)(C)C2 (some centres unmarked) : < 10 nM
CCn1c(-c2cccnc2[C@H](C)OC)c2c3cc(ccc31)-c1cc(O)cc(c1)C[C@H](NC(=O)[C@H](C(C)C)N(C)C(=O)[C@H]1CCN1C(=O)[C@@H]1CN1)C(=O)N1CCC[C@H](N1)C(=O)OCC(C)(C)C2 : 10 to 100 nM
CCn1c(-c2cccnc2[C@H](C)OC)c2c3cc(ccc31)-c1cc(O)cc(c1)C[C@H](NC(=O)[C@H](C(C)C)N(C)C(=O)CN(C)C(=O)[C@]1(C)CN1)C(=O)N1CCC[C@H](N1)C(=O)OCC(C)(C)C2 : 10 to 100 nM
CCn1c(-c2cccnc2[C@H](C)OC)c2c3cc(ccc31)-c1cc(O)cc(c1)C[C@H](NC(=O)[C@H](C1CCCC1)N(C)C(=O)CN(C)C(=O)[C@@H]1N[C@@H]1C1CC1)C(=O)N1CCC[C@H](N1)C(=O)OCC(C)(C)C2 : 10 to 100 nM
CCn1c(-c2cccnc2[C@H](C)OC)c2c3cc(ccc31)-c1cc(O)cc(c1)C[C@H](NC(=O)[C@H](C(C)C)N(C)C(=O)CN(C)C(=O)[C@@H]1N[C@@H]1C1CCC1)C(=O)N1CCC[C@H](N1)C(=O)OCC(C)(C)C2 : 10 to 100 nM
CCn1c(-c2cccnc2[C@H](C)OC)c2c3cc(ccc31)-c1cc(O)cc(c1)C[C@H](NC(=O)[C@H](C(C)C)N(C)C(=O)CN(C)C(=O)C1CN1CCOC)C(=O)N1CCC[C@H](N1)C(=O)OCC(C)(C)C2 (some centres unmarked) : < 10 nM
CCn1c(-c2cccnc2[C@H](C)OC)c2c3cc(ccc31)-c1cc(O)cc(c1)C[C@H](NC(=O)[C@H](C(C)C)N(C)C(=O)[C@H](C)N(C)C(=O)[C@H]1CN1)C(=O)N1CCC[C@H](N1)C(=O)OCC(C)(C)C2 : 10 to 100 nM
CCn1c(-c2cccnc2[C@H](C)OC)c2c3cc(ccc31)-c1cc(O)cc(c1)C[C@H](NC(=O)[C@H](C(C)C)N(C)C(=O)CN(C)C(=O)[C@H]1N[C@@H]1C1CC1)C(=O)N1CCC[C@H](N1)C(=O)OCC(C)(C)C2 : < 10 nM

Challenge: Entry CCn1c(-c2cccnc2[C@H](C)OC)c2c3cc(ccc31)-c1cc(O)cc(c1)C[C@H](NC(=O)[C@H](C(C)C)N(C)C(=O)CN(C)C(=O)[C@H]1N[C@H]1C(C)C)C(=O)N1CCC[C@H](N1)C(=O)OCC(C)(C)C2 : reported IC50 = ?
Response given: 10 to 100 nM

Challenge: Entry CCn1c(-c2cccnc2[C@H](C)OC)c2c3cc(ccc31)-c1cc(O)cc(c1)C[C@H](NC(=O)[C@H](C(C)C)N(C)C(=O)CN(C)C(=O)[C@H]1CN1CC1(C)COC1)C(=O)N1CCC[C@H](N1)C(=O)OCC(C)(C)C2 (some centres unmarked) : reported IC50 = ?
Response given: 10 to 100 nM

Challenge: Entry CCn1c(-c2cccnc2[C@H](C)OC)c2c3cc(ccc31)-c1cc(O)cc(c1)C[C@H](NC(=O)[C@H](C(C)C)N(C)C(=O)CN(C)C(=O)[C@@H]1CN1CCCOC)C(=O)N1CCC[C@H](N1)C(=O)OCC(C)(C)C2 (some centres unmarked) : reported IC50 = ?
Response given: < 10 nM
